- TARGET OF ASSAY: T1, recombinant chemotaxis inhibitory protein of Staphylococcus aureus, residues 28-149 (rCHIPS_(28–149)) (Staphylococcus aureus N315 (MRSA), UniProt A6QIG7 28-149)
- T1 construct: three N-terminal residues, GlyAlaMet, left from the vector after TEV cleavage; Uniformly 15N-labelled (isotope only) in the NMR titrations; unlabelled in ITC and in the cell assays; also called unlabelled CHIPS; ^15N-labelled CHIPS_(28–149); source: E. coli BL21 (DE3), purified (glutathione sepharose 4B, TEV cleavage, Mono S); not shown: GST, N-terminal, cleaved
- EXPERIMENT NOTES: ITC; CHIPS(28-149) (0.2 mM) titrated with the peptides; non-linear regression; data not shown
- ASSAY SETUP: both partners purified
pKd: −log10 of the molar value.
OBSERVABLE: pKd

Sample MDSFNYTTPDYGHYDDKDTLDLNTPVDKTSNTLRVPDAPAPAC (human C5a receptor, N-terminal extracellular region, residues M1-D37; also called human C5aR_(1–37) peptide; source: gift from Dr M. Barker, Division of Genomic Medicine, Sheffield) ; pKd observed: ~4.40
